SYSTEM TESTED: human androgen receptor (Homo sapiens, UniProt P10275)
Construct: expressed in transfected cells
Sequence (P10275 1-920): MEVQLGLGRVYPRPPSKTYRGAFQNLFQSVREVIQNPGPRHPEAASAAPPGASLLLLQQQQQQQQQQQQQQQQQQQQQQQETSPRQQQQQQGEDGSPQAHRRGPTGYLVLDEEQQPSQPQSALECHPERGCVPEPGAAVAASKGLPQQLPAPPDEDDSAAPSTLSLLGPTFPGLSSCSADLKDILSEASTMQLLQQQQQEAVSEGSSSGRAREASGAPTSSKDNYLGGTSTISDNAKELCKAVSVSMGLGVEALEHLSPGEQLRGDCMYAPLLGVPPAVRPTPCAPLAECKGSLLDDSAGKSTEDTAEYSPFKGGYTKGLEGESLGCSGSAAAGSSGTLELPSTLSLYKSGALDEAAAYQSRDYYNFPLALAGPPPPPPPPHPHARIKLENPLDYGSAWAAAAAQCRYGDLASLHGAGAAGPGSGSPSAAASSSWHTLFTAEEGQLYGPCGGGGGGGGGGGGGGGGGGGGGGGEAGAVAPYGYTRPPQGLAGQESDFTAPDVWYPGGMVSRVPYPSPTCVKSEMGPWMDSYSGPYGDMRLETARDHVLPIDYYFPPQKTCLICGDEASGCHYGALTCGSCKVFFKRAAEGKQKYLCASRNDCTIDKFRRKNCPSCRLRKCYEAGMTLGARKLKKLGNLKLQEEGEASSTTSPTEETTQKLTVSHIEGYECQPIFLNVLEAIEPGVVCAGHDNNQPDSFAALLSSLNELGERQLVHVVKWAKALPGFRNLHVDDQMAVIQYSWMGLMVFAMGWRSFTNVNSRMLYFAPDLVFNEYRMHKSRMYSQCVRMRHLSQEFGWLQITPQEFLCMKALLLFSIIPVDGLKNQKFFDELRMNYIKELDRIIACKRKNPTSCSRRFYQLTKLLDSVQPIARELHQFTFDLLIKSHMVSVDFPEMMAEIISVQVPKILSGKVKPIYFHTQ
ASSAY PROTOCOL: Yeast Antiandrogen Screen (YAAS), reporter gene assay
Type: cell-based
CONDITION SET: coincubated with 2.5 nM testosterone
MEASURED METRIC: antiandrogenic activity in the YAAS (result in words)

COMPOUND	VALUE OBSERVED
CCCCC(CC)COC(=O)/C=C\C(=O)OCC(CC)CCCC (stereo not shown)	inactive
CCCCC(CC)COC(=O)/C=C/C(=O)OCC(CC)CCCC (stereo not shown)	inactive

---

This listing pairs compounds with measured IC50.
SYSTEM TESTED: human estrogen receptor alpha (Homo sapiens, UniProt P03372)
Sequence (P03372 1-595): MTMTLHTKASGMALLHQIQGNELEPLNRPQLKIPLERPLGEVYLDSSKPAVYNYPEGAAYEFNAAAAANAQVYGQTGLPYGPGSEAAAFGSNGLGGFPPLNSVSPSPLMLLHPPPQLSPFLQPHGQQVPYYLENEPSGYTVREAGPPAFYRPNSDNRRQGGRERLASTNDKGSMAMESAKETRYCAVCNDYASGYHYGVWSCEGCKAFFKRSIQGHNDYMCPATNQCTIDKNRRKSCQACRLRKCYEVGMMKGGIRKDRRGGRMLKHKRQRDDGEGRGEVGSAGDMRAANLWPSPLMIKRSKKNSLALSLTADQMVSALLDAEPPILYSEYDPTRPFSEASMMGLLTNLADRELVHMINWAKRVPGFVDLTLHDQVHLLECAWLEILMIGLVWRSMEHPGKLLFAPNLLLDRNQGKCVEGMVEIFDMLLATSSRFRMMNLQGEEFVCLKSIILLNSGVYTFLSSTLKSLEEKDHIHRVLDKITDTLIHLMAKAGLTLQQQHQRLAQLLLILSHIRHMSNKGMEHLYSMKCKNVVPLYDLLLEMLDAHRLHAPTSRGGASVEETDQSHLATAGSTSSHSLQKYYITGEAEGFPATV
ASSAY PROTOCOL: Yeast Antiestrogen Screen (YAES), reporter gene assay
CONDITION SET: authentic standards 300 nM to 1 mM in ethanol, coincubated with 30 pM 17β-estradiol, 24 h; three experiments; four-parameter logistic function; read-out: IC50, antiestrogenic in the YAES
Numbers only here, please. The scale is µM.

COMPOUND SMILES	IC50 / µM
CCCCCCCCOC(=O)/C=C\C(=O)OCCCCCCCC	107

Next item in the queue.
Fill blank: measured IC50 of the compound CCCCCCCCOC(=O)/C=C/C(=O)OCCCCCCCC is ____.
35.4
